Could you please report measured IC50 for the items listed next?
system-name: LZK (Homo sapiens)
Construct: 10 nM LZK, catalytic domain, Carna Biosiences in assay buffer; purchased Carna Biosciences ('Carna Biosiences' [sic])
Sequence (O43283 168-409 limits assumed): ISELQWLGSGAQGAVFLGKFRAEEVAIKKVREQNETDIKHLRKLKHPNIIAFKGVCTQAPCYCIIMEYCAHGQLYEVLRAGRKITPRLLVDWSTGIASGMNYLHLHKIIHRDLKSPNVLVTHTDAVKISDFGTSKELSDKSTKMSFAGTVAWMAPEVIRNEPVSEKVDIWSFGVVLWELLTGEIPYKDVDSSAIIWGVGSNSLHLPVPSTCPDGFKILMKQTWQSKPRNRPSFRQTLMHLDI
experiment: LZK biochemical assay (TR-FRET, MKK7 phosphorylation)
Method: LZK assay is a biochemical assay format designed to screen for inhibitors of LZK. Enzymatic activity of LZK is measured by monitoring phosphorylation of the physiological substrate MKK7 (MAP2K7, Dual specificity mitogen-activated protein kinase kinase 7). Phosphorylation is detected by a TR-FRET system whereby His-tagged MKK7 is labeled by a XL665-labeled anti-His antibody (FRET acceptor, emission 665 nm). […]
In your response, put the unit directly after the numeric value.

Input line: Can you look up the measured IC50 of CC[C@@H](c1ccccc1)n1cc(-c2cc(-c3cnn(C(C)C(F)(F)F)c3)c3nc(N)nn3c2)cn1 (single isomer, unassigned) [II-96] for me?
Output line: 60 nM

Input line: Request: CN(C)c1cccc(-c2cc(-c3cnn(C(c4ccc(C(F)(F)F)nc4)C4CCOCC4)c3)cn3nc(N)nc23)c1 (racemic) [II-22]
Output line: 6.6 nM

Input line: Request: "Cc1cc(-c2cc(-c3cnn(Cc4ccccc4)c3)cc3nc(N)nn23)cnn1"
Output line: 620 nM

Input line: Request: CC(C)C(c1ccc(C(F)(F)F)nc1)n1cc(-c2cc(-c3cnn(C4CCCC4)c3)n3nc(N)nc3c2)cn1 (stereo not shown) [II-143]
Output line: 15 nM

Input line: Request: CCC(c1ccc(C(F)(F)F)nc1)n1cc(-c2cc(-c3cnn(CC(F)F)c3)c3nc(N)nn3c2)cn1 (racemic) [II-108]
Output line: 37 nM

Input line: Request: Nc1nc2cc(-c3cnn(C(c4ccc(C(F)(F)F)nc4)C4CCOCC4)c3)cc(-c3ccc(=O)n(CC(F)(F)F)c3)n2n1 (stereo not shown) [II-191]
Output line: 6.3 nM

Input line: Request: Nc1nc2cc(-c3cnn(C(c4ccccc4)C4CCOCC4)c3)cc(-c3cnn(CC(F)(F)F)c3)n2n1 (single isomer, unassigned) [II-148]
Output line: 170 nM
